Ref: patent US9566281B2

- Tested on: A/Anhui/1/2013 (H7N9)
- protocol: microbe, parasite or virus in culture
- Type: cell-based, influenza A virus
- condition.set: Influenza A virus, H7N9, A549, 24 h

chemical.string: CCCS(=O)(=O)Nc1ccc(F)c(C(=O)c2c[nH]c3ncc(-c4ccc(Cl)cc4)cc23)c1F
unit: µM
EC50: 12
